- Measurement notes: Selectivity index, ratio of IC50 for cytotoxicity against african green monkey Vero cells incubated for 48 hrs by celltiter blue assay to IC50 for antibacterial activity against Mycoplasma genitalium G37C assessed as bacterial growth inhibition incubated for 30 mins by qPCR analysis
- Type: toxicity, cell-based
- Run parameters: read-out: Ratio IC50
Readout type: selectivity ratio at 48 h
One number for each entry.

Which selectivity ratio at 48 h is reported for this compound? C/C=C/C=C/[C@H]1C(C)=C[C@H]2C[C@@H](C)CC[C@@H]2[C@@]1(C)/C(O)=C1\C(=O)[C@H](COCc2cn(CCc3ccc(O)cc3)nn2)N(C)C1=O
64

----------
- Measurement notes: Selectivity index, ratio of IC50 for cytotoxicity against african green monkey Vero cells incubated for 48 hrs by celltiter blue assay to MIC for antibacterial activity against Mycoplasma genitalium G37C assessed as bacterial growth inhibition incubated for 7 days by phenol red reagent based microbroth dilution assay
- Format: toxicity, cell-based
- Run parameters: read-out: Selectivity Index
Readout type: selectivity ratio at 48 h
Give bare numbers.

Consider the worked cases shown below.
Smiles text: C/C=C/C=C/[C@H]1C(C)=C[C@H]2C[C@@H](C)CC[C@@H]2[C@@]1(C)C(=O)[C@H]1C(=O)N(C)[C@H](CO)[C@H]1O
selectivity ratio at 48 h: 2.8

Smiles text: C/C=C/C=C/[C@H]1C(C)=C[C@H]2C[C@@H](C)CC[C@@H]2[C@@]1(C)/C(O)=C1\C(=O)[C@@H](COCc2cn(Cc3ccc(C(=O)O)cc3)nn2)N(C)C1=O
selectivity ratio at 48 h: 1.5

Smiles text: C/C=C/C=C/[C@H]1C(C)=C[C@H]2C[C@@H](C)CC[C@@H]2[C@@]1(C)/C(O)=C1\C(=O)[C@@H](COCc2cn(CCc3ccc(O)cc3)nn2)N(C)C1=O
selectivity ratio at 48 h: 6.1

Smiles text: CCCCC[C@H]1C(C)=C[C@H]2C[C@@H](C)CC[C@@H]2[C@@]1(C)/C(O)=C1\C(=O)[C@@H](CO)N(C)C1=O
selectivity ratio at 48 h: 32

Smiles text: C/C=C/C=C/[C@H]1C(C)=C[C@H]2C[C@@H](C)CC[C@@H]2[C@@]1(C)/C(O)=C1\C(=O)[C@H](COCc2cn(CC3CCCC3)nn2)N(C)C1=O
selectivity ratio at 48 h: 7.9

Smiles text: CC1=C[C@H]2C[C@@H](C)CC[C@@H]2[C@@](C)(/C(O)=C2\C(=O)[C@H](COCc3cn(CCc4ccc(O)cc4)nn3)N(C)C2=O)[C@H]1/C=C/C=C/C[C@@H](C)O
selectivity ratio at 48 h: 12.1

Smiles text: C/C=C/C=C/[C@H]1C(C)=C[C@H]2C[C@@H](C)CC[C@@H]2[C@@]1(C)/C(O)=C1\C(=O)[C@H](COCc2cn(CCO)nn2)N(C)C1=O
selectivity ratio at 48 h: 9.7

Which selectivity ratio at 48 h is reported for this compound? CCCCCC1=C(C)C[C@H]2C[C@@H](C)CC[C@@H]2[C@@]1(C)/C(O)=C1\C(=O)[C@@H](CO)N(C)C1=O
13.1

----------
Exercise: state measured selectivity ratio at 48 h for each of the compounds provided.
- Measurement notes: Selectivity index, ratio of IC50 for cytotoxicity against african green monkey Vero cells incubated for 48 hrs by celltiter blue assay to MIC for antibacterial activity against Mycoplasma genitalium G37C assessed as bacterial growth inhibition incubated for 7 days by phenol red reagent based microbroth dilution assay
- Assay type: toxicity, cell-based
- Run parameters: read-out: Selectivity Index

Compound: C#CCOC[C@@H]1C(=O)/C(=C(/O)[C@@]2(C)[C@@H](/C=C/C=C/C[C@@H](C)O)C(C)=C[C@H]3C[C@@H](C)CC[C@@H]32)C(=O)N1C
Reading: 15.1

Compound: CCCCC[C@H]1[C@@H](C)C[C@H]2C[C@@H](C)CC[C@@H]2[C@@]1(C)/C(O)=C1\C(=O)[C@@H](CO)N(C)C1=O
Reading: 64

Compound: C/C=C/[C@@H]1C=C[C@@H]2C[C@H](C)CC[C@H]2[C@]1(C)/C(O)=C1\C(=O)[C@H](CO)N(C)C1=O
Reading: 46.9

Compound: C/C=C/C=C/[C@H]1C(C)=C[C@H]2C[C@@H](C)CC[C@@H]2[C@@]1(C)/C(O)=C1\C(=O)[C@@H](COCc2cn(CC3CCCCO3)nn2)N(C)C1=O (stereo partly specified)
Reading: 8.1

Compound: CC1=C[C@H]2C[C@@H](C)CC[C@@H]2[C@@](C)(/C(O)=C2\C(=O)[C@@H](CO)N(C)C2=O)[C@H]1/C=C/C=C/C[C@@H](C)O
Reading: 23.8

Could you now consider this next compound?
Which selectivity ratio at 48 h is reported for this compound? C/C=C/C=C/[C@H]1C(C)=C[C@H]2C[C@@H](C)CC[C@@H]2[C@@]1(C)/C(O)=C1\C(=O)[C@H](COCc2cn(CC3CCCCO3)nn2)N(C)C1=O (stereo partly specified)
4.4
